assay: E. coli acrAB mutant growth effects, primary screen, E. coli filamentation inducers, strain DRC39, OD650, 48 h (AID 1179);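 also: screen aims at cell division blockers that make cells filament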; settings: E. coli DRC39 delta-acrAB growth, higher = more signal, called active from +8 up or from −8 down
Measurement Label: z-score
Field format: numeric only.

What measured z-score goes with CCCC[C@@H]1C[C@H]1[C@@H](NC(=O)C(C)(C)C)c1ccc(C(F)(F)F)cc1 ?
-0.631

What measured z-score goes with Cc1ccc(S[C@]2(C(=O)O)CC(=O)N(C(C)C)[C@@H]2c2ccc(CO)cc2I)cc1 ?
1.42

What measured z-score goes with COC(=O)[C@@]1(CCS(=O)(=O)c2ccccc2)N=C(c2ccc(OCCCO)cc2)O[C@H]1c1ccccc1CN=[N+]=[N-] ?
-0.154

What measured z-score goes with CC(C)(C)OC(=O)CC[C@]1(C(=O)N2CCOCC2)N=C(c2ccc(OCCCO)cc2)O[C@H]1c1ccccc1N=[N+]=[N-] ?
0.314

What measured z-score goes with O=C(CS)NCCCCCCNC(=O)[C@@H]1C[C@@H]2C(=O)N[C@@H](Cc3ccccc3)C(=O)N2[C@@H]1c1cccc(OCCO)c1 ?
0.0288

What measured z-score goes with NC(=O)[C@@H]1[C@H]2C(=O)O[C@H](c3ccccc3)[C@H](c3ccccc3)N2[C@H](c2ccc(O)cc2)[C@@]12C(=O)Nc1ccccc12 ?
-0.766

What measured z-score goes with O=C1O[C@H](c2ccccc2)[C@H](c2ccccc2)N2[C@H]1[C@@H](C(=O)N1CCCCCCC1)[C@]1(C(=O)Nc3ccc(C#CCCO)cc31)[C@H]2c1ccccc1OCCO ?
-0.106

----------
assay: small-molecule binders of probe aNOTCH3, primary screen, biochemical, small-molecule microarray, 635/667 nm fluorescence (AID 1120); conditions: higher = more signal;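 also: probe is a biotin-tagged antibody raised against NOTCH3 rather than NOTCH3 protein; score merges spot fluorescence near 667 nm with spot signal to noise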
Measurement Label: composite z-score
Field format: numeric only.

What measured composite z-score goes with CC(C)[Si]1(C(C)C)O[C@@H](c2ccccc2)c2cc(-c3ccc(-c4ccc(Cl)c(Cl)c4)o3)nc(-c3ccccc3)c21 ?
-0.0918

What measured composite z-score goes with C[C@@]1([C@@H](NC(=O)c2ccc(-c3ccccc3)cc2)c2ccc(Cl)cc2)C[C@H]1C1CCCCC1 ?
0.305

What measured composite z-score goes with COc1cc2c(cc1OC)CN(C(=O)[C@@H]1[C@H]3C(=O)O[C@H](c4ccccc4)[C@H](c4ccccc4)N3[C@H](c3ccccc3OCCO)[C@@]13C(=O)Nc1ccc(C#CCCO)cc13)CC2 ?
0.0556

What measured composite z-score goes with CC(C)NC(=O)[C@@]1(C)c2ccccc2C(=O)N(Cc2cc(C(F)(F)F)cc(C(F)(F)F)c2)[C@H]1c1ccc(CO)cc1 ?
-0.165

What measured composite z-score goes with COC(=O)[C@@]1(Cc2ccc(OC)cc2)[C@H]2c3cc(C(=O)N(C)C)n(Cc4ccccn4)c3C[C@H]2CN1C(=O)c1ccccc1 ?
0.0674

What measured composite z-score goes with COc1ccc(C(=O)Nc2ccc(CN3C(=O)[C@]4(O[C@H](CCO)[C@@H]([Si](C)(C)c5ccc(OC)cc5)[C@@H]4C)c4ccccc43)cc2)cc1 ?
0.149

----------
target: Pro-neuregulin-1, membrane-bound isoform (Homo sapiens); assay: NRG1 binders on small-molecule microarrays, primary screen, psychiatric disease protein project, biochemical, small-molecule microarray, fluorescence 635/667 (AID 1075); details: NRG1 binding, 635 nm fluorescence, higher = more signal;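 also: score combines 667 nm spot fluorescence with signal to noise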
Measurement Label: composite z-score
Field format: numeric only.

What measured composite z-score goes with O=C(NCCO)C1=C[C@H](Oc2ccccc2I)[C@@H](O)[C@H](N(Cc2ccco2)C(=O)Cc2ccccc2)C1 ?
-0.352

What measured composite z-score goes with COc1cc2c(cc1OC)CN(C(=O)[C@H]1[C@@H]3C(=O)O[C@@H](c4ccccc4)[C@@H](c4ccccc4)N3[C@@H](c3ccc(O)cc3)[C@]13C(=O)Nc1ccccc13)CC2 ?
1.41

What measured composite z-score goes with CCOC(=O)C[C@H]1[C@H](OC(=O)c2ccc(C(=O)c3ccccc3)cc2)[C@@H](NC(=O)CC(C)C)c2cc(OCCCO)ccc2N1C(=O)c1ccc2ccccc2n1 ?
0.621
